B1: NELF-E aptamer (parent)
chain: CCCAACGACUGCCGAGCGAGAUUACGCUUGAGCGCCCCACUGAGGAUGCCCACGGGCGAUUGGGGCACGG

- Variants of: B1
- Method Description: HiTS-RAP
- Condition Summary: with NELF-E (Drosophila)
Note to self: Kd under 7 nM means true (1), ties and anything higher get false (0).

{"Variant String": "G11U G63A", "Class Name": "false (0)"}
{"Variant String": "A8G A43G", "Class Name": "false (0)"}
{"Variant String": "C12G G20U", "Class Name": "false (0)"}
{"Variant String": "G7U G42U", "Class Name": "false (0)"}
{"Variant String": "C12G C66U", "Class Name": "true (1)"}
{"Variant String": "U29G G55U", "Class Name": "true (1)"}
{"Variant String": "G7U C27G", "Class Name": "true (1)"}
{"Variant String": "A8U U10C", "Class Name": "true (1)"}
{"Variant String": "G11U A39U", "Class Name": "false (0)"}
{"Variant String": "A4G A19C", "Class Name": "true (1)"}
{"Variant String": "U23G G48U", "Class Name": "false (0)"}
{"Variant String": "U10G U29G", "Class Name": "true (1)"}
{"Variant String": "C6G G18U", "Class Name": "true (1)"}
{"Variant String": "A5G C27U", "Class Name": "true (1)"}
{"Variant String": "U23G G32A", "Class Name": "true (1)"}
{"Variant String": "C6G A8C", "Class Name": "true (1)"}
{"Variant String": "U29G C36U", "Class Name": "false (0)"}
{"Variant String": "A15U U29A", "Class Name": "true (1)"}
{"Variant String": "C6G C12G", "Class Name": "true (1)"}
{"Variant String": "G20A A24G", "Class Name": "true (1)"}
{"Variant String": "C9G C25G", "Class Name": "true (1)"}
{"Variant String": "A19G G20A", "Class Name": "true (1)"}
{"Variant String": "G7C A8G", "Class Name": "true (1)"}
{"Variant String": "U10G C13G", "Class Name": "true (1)"}
{"Variant String": "A24G G30A", "Class Name": "true (1)"}
{"Variant String": "A5U G56A", "Class Name": "false (0)"}
{"Variant String": "C12G G55A", "Class Name": "false (0)"}
{"Variant String": "C13G U41G", "Class Name": "true (1)"}
{"Variant String": "G20U A46G", "Class Name": "false (0)"}
{"Variant String": "U41G G63A", "Class Name": "false (0)"}
{"Variant String": "C17G G20U", "Class Name": "true (1)"}
{"Variant String": "A8G G18A", "Class Name": "true (1)"}
{"Variant String": "G14U U22G", "Class Name": "true (1)"}
{"Variant String": "A5G G18U", "Class Name": "true (1)"}
{"Variant String": "U10G C35G", "Class Name": "true (1)"}
{"Variant String": "A4G U29G", "Class Name": "true (1)"}
{"Variant String": "C13G G62A", "Class Name": "false (0)"}
{"Variant String": "A5G U10G", "Class Name": "true (1)"}
{"Variant String": "A5U G34A", "Class Name": "true (1)"}
{"Variant String": "A4U", "Class Name": "true (1)"}
{"Variant String": "A5C C6G", "Class Name": "true (1)"}
{"Variant String": "G64A G65U", "Class Name": "true (1)"}
{"Variant String": "A5U G64A", "Class Name": "false (0)"}
{"Variant String": "A15U U41G", "Class Name": "true (1)"}
{"Variant String": "U22G C49U", "Class Name": "false (0)"}
{"Variant String": "A8G A43U", "Class Name": "false (0)"}
{"Variant String": "C13A G20U", "Class Name": "false (0)"}
{"Variant String": "U22G G63U", "Class Name": "false (0)"}
{"Variant String": "A8U U61A", "Class Name": "false (0)"}
{"Variant String": "G18A U41G", "Class Name": "true (1)"}
{"Variant String": "C6G G42A", "Class Name": "false (0)"}
{"Variant String": "A4G U10A", "Class Name": "true (1)"}
{"Variant String": "U23G G63U", "Class Name": "false (0)"}
{"Variant String": "A5G A43U", "Class Name": "false (0)"}
{"Variant String": "G11U G26A", "Class Name": "true (1)"}
{"Variant String": "A4U G30A", "Class Name": "true (1)"}
{"Variant String": "C17G G64A", "Class Name": "true (1)"}
{"Variant String": "A24G U28C", "Class Name": "false (0)"}
{"Variant String": "U29G G44U", "Class Name": "false (0)"}
{"Variant String": "A5C C9G", "Class Name": "false (0)"}
{"Variant String": "A4U A31U", "Class Name": "false (0)"}
{"Variant String": "A8U C38U", "Class Name": "false (0)"}
{"Variant String": "G16U U41G", "Class Name": "true (1)"}
{"Variant String": "U22G U61G", "Class Name": "false (0)"}
{"Variant String": "A19G U28C", "Class Name": "false (0)"}
{"Variant String": "C9G G32A", "Class Name": "true (1)"}
{"Variant String": "C6G U41G", "Class Name": "true (1)"}
{"Variant String": "C6G A59U", "Class Name": "false (0)"}
{"Variant String": "U10G A19G", "Class Name": "true (1)"}
{"Variant String": "A5U A15U", "Class Name": "true (1)"}
{"Variant String": "A5U U61C", "Class Name": "false (0)"}
{"Variant String": "A8G A19U", "Class Name": "true (1)"}
{"Variant String": "C33G", "Class Name": "true (1)"}
{"Variant String": "C6G U23C", "Class Name": "true (1)"}
{"Variant String": "A24G U41G", "Class Name": "true (1)"}
{"Variant String": "A5G G7U", "Class Name": "true (1)"}
{"Variant String": "G14U U22C", "Class Name": "true (1)"}
{"Variant String": "A4G U41C", "Class Name": "false (0)"}
{"Variant String": "A8U C12G", "Class Name": "true (1)"}
{"Variant String": "U10G C17G", "Class Name": "true (1)"}
